# Assay System: Ataxin-2 (Homo sapiens) (UniProt Q99700)
# Sequence (Q99700 whole entry): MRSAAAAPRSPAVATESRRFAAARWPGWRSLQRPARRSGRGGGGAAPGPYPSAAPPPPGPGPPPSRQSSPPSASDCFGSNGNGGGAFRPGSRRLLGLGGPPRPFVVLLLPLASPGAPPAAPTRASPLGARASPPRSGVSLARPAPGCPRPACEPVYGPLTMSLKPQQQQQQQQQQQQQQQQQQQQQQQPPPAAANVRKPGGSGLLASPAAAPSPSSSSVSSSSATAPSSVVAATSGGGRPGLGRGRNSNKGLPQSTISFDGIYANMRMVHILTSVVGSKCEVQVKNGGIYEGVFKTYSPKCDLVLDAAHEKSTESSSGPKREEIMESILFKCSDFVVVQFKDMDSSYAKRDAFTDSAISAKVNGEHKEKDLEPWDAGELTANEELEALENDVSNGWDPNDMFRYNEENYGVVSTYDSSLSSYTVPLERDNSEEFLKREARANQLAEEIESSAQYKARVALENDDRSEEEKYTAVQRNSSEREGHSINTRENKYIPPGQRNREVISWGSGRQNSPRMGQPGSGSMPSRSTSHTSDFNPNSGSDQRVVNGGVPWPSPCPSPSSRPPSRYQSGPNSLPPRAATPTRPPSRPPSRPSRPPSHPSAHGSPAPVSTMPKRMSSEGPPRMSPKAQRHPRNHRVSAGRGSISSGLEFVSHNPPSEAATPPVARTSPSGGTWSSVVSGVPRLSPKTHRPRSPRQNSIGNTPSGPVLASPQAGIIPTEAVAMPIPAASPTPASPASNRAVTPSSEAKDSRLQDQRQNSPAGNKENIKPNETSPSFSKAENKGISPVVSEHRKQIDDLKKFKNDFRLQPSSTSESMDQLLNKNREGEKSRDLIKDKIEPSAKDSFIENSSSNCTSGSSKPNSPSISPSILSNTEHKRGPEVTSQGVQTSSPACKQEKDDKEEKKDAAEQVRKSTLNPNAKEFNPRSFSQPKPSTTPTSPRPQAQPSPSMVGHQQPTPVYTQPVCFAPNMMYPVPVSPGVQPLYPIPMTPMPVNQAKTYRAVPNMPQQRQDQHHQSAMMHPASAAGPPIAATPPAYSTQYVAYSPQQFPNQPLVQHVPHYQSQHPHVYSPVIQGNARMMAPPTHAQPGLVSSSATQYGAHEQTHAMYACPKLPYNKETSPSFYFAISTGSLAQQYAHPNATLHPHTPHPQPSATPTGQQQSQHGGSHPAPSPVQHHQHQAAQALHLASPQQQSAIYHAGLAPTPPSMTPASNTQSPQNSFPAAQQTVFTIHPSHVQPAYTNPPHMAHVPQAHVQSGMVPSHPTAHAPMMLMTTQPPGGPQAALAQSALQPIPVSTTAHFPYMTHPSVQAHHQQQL
# Method Notes: qHTS for Inhibitors of ATXN expression.
# Format: functional
The whole screen tested about 400,000 compounds, of which about 2,100 (0.53%) were called active. About 14% were inconclusive and are not listed. No rule for the calls is given here. Only a selection was taken, and actives are over-represented in it overall.
Result category, one only: active, inactive

Before answering, review these 3 worked examples.
[
  {
    "Molecule": "COc1ccccc1/C=C/c1nc(C#N)c(N(C)C)o1",
    "Answer Label": "inactive"
  },
  {
    "Molecule": "COc1cc2c(cc1OC)C(C)N(S(=O)(=O)c1cnc(Cl)c(Cl)c1)CC2 (stereo not drawn)",
    "Answer Label": "active"
  },
  {
    "Molecule": "CCc1nc2sc(C(C)=O)c(N)c2c2c1CCCC2",
    "Answer Label": "inactive"
  }
]

Kindly review the next molecule as well.
// query Give the logged outcome of this assay for the following molecule: Cc1c(CC(=O)N2CCN(C(=O)C3COc4ccccc4O3)CC2)c(=O)oc2cc(O)c(Cl)cc12 (stereo not drawn)
// result inactive

---

# Assay System: Ataxin-2 (Homo sapiens) (UniProt Q99700)
# Method Notes: qHTS for Inhibitors of ATXN expression.
# Format: functional
Out of some 400,000 compounds screened, about 2,100 (0.53%) were called active. Another 14% or so got no clear call; they are omitted. The rule behind the calls is not given here. This excerpt belongs to a sample that is enriched for actives.
Result category, one only: class 1 (active), class 0 (inactive)

Before answering, review these 4 worked examples.
[
  {
    "Compound": "N=C(NOC(=O)COc1ccc(Br)cc1Cl)c1ccncc1",
    "Answer Label": "class 0"
  },
  {
    "Compound": "CCn1c(=N)c(C(=O)NCc2ccccc2)cc2c(=O)n3cccc(C)c3nc21",
    "Answer Label": "class 0"
  },
  {
    "Compound": "O=C(N/N=C/c1sc(N2CCOCC2)nc1-c1ccccc1)c1ccccc1Cl",
    "Answer Label": "class 0"
  },
  {
    "Compound": "COc1cc(N2C(=O)C=CC2=O)ccc1N1C(=O)C=CC1=O",
    "Answer Label": "class 1"
  }
]

// query Give the logged outcome of this assay for the following compound: CNC(=O)c1ccc(-c2sc3nc(N4CCOCC4)c4c(c3c2N)CC(C)(C)OC4)o1
// result class 0

// query Give the logged outcome of this assay for the following compound: C1=C(c2ccc(-c3ccccc3)cc2)Nc2ncnn2C1c1ccco1 (centres undefined)
// result class 0

// query Give the logged outcome of this assay for the following compound: COc1ccccc1C1=NC(c2ccccc2)CN1c1ccccc1 (centres undefined)
// result class 0

// query Give the logged outcome of this assay for the following compound: COc1ccccc1N1C(=O)c2cccc3c(Cl)ccc(c23)C1=O
// result class 0

// query Give the logged outcome of this assay for the following compound: CCCCc1c(-c2ccccc2OC)ncn1CCc1cccc(Cl)c1
// result class 1

// query Give the logged outcome of this assay for the following compound: CC1(C)CC(=O)C2=C(C1)c1c(ccc3ccccc13)NC2c1ccc(OCC(=O)O)cc1 (centres undefined)
// result class 0

---

# Assay System: Ataxin-2 (Homo sapiens) (UniProt Q99700)
# Method Notes: qHTS for Inhibitors of ATXN expression.
# Assay type: functional
The campaign covered roughly 400,000 compounds. About 2,100 (0.53%) were called active. Another 14% or so got no clear call; they are omitted. How the calls were made is not given here. Many of the other results were omitted from the sample, so actives are more common in it than they were.
Result category, one only: label 1 = active, label 0 = inactive

// query Give the logged outcome of this assay for the following compound: O=C(Nc1cccc(-c2cn3ccccc3n2)c1)c1cccc(Cl)c1
// result label 1

// query Give the logged outcome of this assay for the following compound: O=C(/C=C/c1cn(CC(O)CN2CCCCCC2)c2ccccc12)c1ccc(Br)cc1 (stereo unspecified)
// result label 0

// query Give the logged outcome of this assay for the following compound: O=C(Nc1ccc(S(=O)(=O)Nc2ccccn2)cc1)c1cccc(Cl)c1
// result label 0

// query Give the logged outcome of this assay for the following compound: Nc1c(C(=O)Nc2ccccc2)sc2nc(-c3ccco3)ccc12
// result label 0

// query Give the logged outcome of this assay for the following compound: COCCn1c(SCC(=O)NC2CC2)nc2ccccc21
// result label 0

// query Give the logged outcome of this assay for the following compound: O=C(Nc1cccc(-c2cn3ccccc3n2)c1)c1cc2ccccc2oc1=O
// result label 1
